Origin of values: paper PMC8700061

Molecular target: β5i subunit of human iCP (Homo sapiens, UniProt P20618+P28062)
Construct: purchased Boston Biochem, Inc., Cambridge, MA, USA
Test: Inhibition of β5i activity (RA at 10 µM, IC50, IC50 shift), Suc-LLVY-AMC
Type: biochemical
Conditions: 0 min pre-incubation (IC50 shift); read-out: IC50 (µM), β5i, without pre-incubation
Protocol: Residual activity measurements were performed at 10 μM final concentrations in the assay buffer (0.01% SDS, 50 mM Tris-HCl, 0.5 mM EDTA, pH 7.4). Stock solutions of the compounds were prepared in DMSO. To 50 μL of each compound in buffer, 25 μL of 0.8 nM human iCP or human cCP (both from Boston Biochem, Inc., Cambridge, MA, USA) were added. […] Reaction progress was recorded on BioTek Synergy HT microplate reader by monitoring fluorescence at 460 nm (λex = 360 nm) for 90 min at 37 °C. […]
Doc: threshold 3 µM (exclusive). Items with IC50 beneath it return met; others return not met.

stdin: Hi there! Is IC50 for CC(C)C[C@H](NC(=O)CCn1c(C#N)nc2ccccc21)B1O[C@@H]2C[C@@H]3C[C@@H](C3(C)C)[C@]2(C)O1 below 3 µM, do you know?
stdout: met

stdin: Given the entry CC(C)C[C@H](NC(=O)CCn1c(C#N)nc2ccccc21)B(O)O , would its reported IC50 be below 3 µM?
stdout: not met

New cases:
stdin: Is it true that IC50 reported for CC(C)C[C@H](NC(=O)Cc1ccc2oc(C#N)nc2c1)B1O[C@@H]2C[C@@H]3C[C@@H](C3(C)C)[C@]2(C)O1 is less than 3 µM?
stdout: not met

stdin: Is IC50 strictly under 3 µM for the entry CC(C)C[C@H](NC(=O)CCn1c(C#N)nc2cccc(Cl)c21)B1O[C@@H]2C[C@@H]3C[C@@H](C3(C)C)[C@]2(C)O1 ?
stdout: not met

stdin: Is IC50 strictly under 3 µM for the entry N#Cc1nc2c(O)cccc2o1 ?
stdout: not met

====

Biological target: β5i subunit of human iCP (Homo sapiens, UniProt P20618+P28062)
Construct: purchased Boston Biochem, Inc., Cambridge, MA, USA
Assay: Inhibition of β5i activity (RA at 10 µM, IC50, IC50 shift), Suc-LLVY-AMC
Type: biochemical
Details: ΔpIC50/ΔNheavy with compound 1 as reference
# Lookup of reported Group efficiency (GE) keyed by entry
Provide a numeric answer; units are not to be included.

Record excerpt, results attached:
stdin: What Group efficiency (GE) value was documented for this molecule, N#Cc1nc2cccc(Cl)c2o1 ?
stdout: 0.92

stdin: Look at this molecule and give its reported Group efficiency (GE). COc1ccc2nc(C#N)oc2c1
stdout: 0.44

stdin: Give its Group efficiency (GE) value. Item: N#Cc1nc2cccc(O)c2o1
stdout: 1.60

stdin: Recorded Group efficiency (GE) for COc1cccc2nc(C#N)oc12 , please?
stdout: 0.61

stdin: Recorded Group efficiency (GE) of COc1ccc2oc(C#N)nc2c1 , please.
stdout: 0.01

API: the following record is the query input.
stdin: Would you mind telling me what Group efficiency (GE) value was observed for N#Cc1nc2cc(Cl)ccc2o1 ?
stdout: 0.09

====

Target: hMAO-A (Homo sapiens, UniProt P21397)
Construct: purchased Sigma Aldrich; host or cells: BTI-TN-5B1-4 insect cells
Sequence (P21397 1-527): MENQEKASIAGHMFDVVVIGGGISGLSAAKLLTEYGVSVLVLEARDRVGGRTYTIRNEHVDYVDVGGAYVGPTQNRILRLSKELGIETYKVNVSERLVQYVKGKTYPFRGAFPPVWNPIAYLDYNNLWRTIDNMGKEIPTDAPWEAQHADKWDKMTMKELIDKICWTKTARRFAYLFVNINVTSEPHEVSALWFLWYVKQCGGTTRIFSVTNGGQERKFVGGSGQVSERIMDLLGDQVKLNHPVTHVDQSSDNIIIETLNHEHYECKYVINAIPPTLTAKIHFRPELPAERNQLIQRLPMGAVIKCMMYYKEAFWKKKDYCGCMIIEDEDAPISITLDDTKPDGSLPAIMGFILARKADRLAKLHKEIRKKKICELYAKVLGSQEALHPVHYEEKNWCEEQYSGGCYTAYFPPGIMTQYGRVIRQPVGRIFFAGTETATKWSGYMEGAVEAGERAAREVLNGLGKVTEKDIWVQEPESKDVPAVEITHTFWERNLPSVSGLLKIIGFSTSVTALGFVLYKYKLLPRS
Experiment: Monoamine oxidase assay, hMAO-A
Format: biochemical
Conditions: 30 min pre-incubation, read-out: Residual activity [%] ± SD, hMAO-A
Reported remaining activity at 100 µM values follow for various compounds

Answered examples (2):
stdin: Quick check: remaining activity at 100 µM on hMAO-A (Homo sapiens, UniProt P21397), item CC(C)C[C@H](NC(=O)CCn1c(C#N)nc2ccccc21)B1O[C@@H]2C[C@@H]3C[C@@H](C3(C)C)[C@]2(C)O1 ?
stdout: > 50%

stdin: What reported remaining activity at 100 µM corresponds to CC(C)C[C@H](NC(=O)CCn1c(C#N)nc2ccccc21)B(O)O on hMAO-A (Homo sapiens, UniProt P21397)?
stdout: > 50%

Continuing:
stdin: Item: CC(C)C[C@H](NC(=O)CCCn1c(C#N)nc2ccccc21)B(O)O Test system: hMAO-A (Homo sapiens, UniProt P21397) Read-out: remaining activity at 100 µM Value: ?
stdout: > 50%
